Task for the reader: assign each of the following compounds its reported TGI.
Tested on: SK-MEL-5 melanoma
Experiment: NCI tumour cell line growth inhibition, 48 h
Where a SMILES comes first, the peptide text is derived from it. Side-chain parts run from the residue outwards. The star is where a group is joined. Cbz = O=C(OCc1ccccc1)*; Boc = CC(C)(C)OC(=O)*

Worked cases, TGI given:
compound	TGI
Cc1cc(C)c(N)c(C)c1N	> 100 µM
Cn1c2cc(Cl)ccc2c2ccc3c(c21)C(=O)C=CC3=O	> 100 µM
NC(=O)C12CCC1C1CCCCC12N1CCOCC1 (stereo unspecified)	> 100 µM
CC(C)CC(NC(=O)OCc1ccccc1)C(=O)NCCCCC(NC(=O)C(CCCCNC(=O)C(CC(C)C)NC(=O)OCc1ccccc1)NC(=O)C(CCCCNC(=O)C(CC(C)C)NC(=O)OCc1ccccc1)NC(=O)C(CCCCNC(=O)C(CC(C)C)NC(=O)OCc1ccccc1)NC(=O)OC(C)(C)C)C(=O)O (stereo unspecified) (Boc-K([Leu-Cbz])K([Leu-Cbz])K([Leu-Cbz])K([Leu-Cbz])-OH; configuration not given here)	> 25 µM
CC(=N\N=C\c1ccccn1)/C(C)=N/N=C/c1ccccn1	> 100 µM

Would you mind listing TGI for each of the following compounds?
1. OC(C1CCCC1=N/N=C1/CCCC1C(O)(C(F)(F)Cl)C(F)(F)Cl)(C(F)(F)Cl)C(F)(F)Cl (stereo unspecified)
2. C=CC[C@@]1(C#N)C[C@H](C[C@]2(C#N)C[C@H](CCl)OC(C)(C)O2)OC(C)(C)O1
3. COc1ccc(CCN2CCOCC2)cc1
4. C[C@@H]1CCC2[C@@H](C)[C@H](OC(=O)CCC(=O)NCCNC(=O)Cc3cc(=O)oc4cc(N(C)C)ccc34)O[C@@H]3O[C@]4(C)CC[C@@H]1C23OO4 (stereo partly specified)
5. O=C(Nc1cc([N+](=O)[O-])cc([N+](=O)[O-])c1)OC1C2CCC1C1OC1C2 (stereo unspecified)

A:
["> 10 µM", "> 100 µM", "> 100 µM", "> 39.3 µM", "> 50 µM"]

Source of measurements: PubChem BioAssay (NCI)
